# assay details: Inhibition of equine liver glutathione S-transferase using GSH and CDNB as substrate preincubated for 2 mins followed by substrate addition and measured upto 6 mins in the presence of UV irradiation by spectrophotometric analysis
# Parameters: species or system Equus caballus
pIC50: −log10 of the molar value.
# binarize pIC50: threshold 6 inclusive, high side True, low side False

{"columns": ["given smiles", "cat"],
 "data": [
  ["CCCOc1c2cccc1Cc1cc(C(=O)P(=O)(O)O)cc(c1O)Cc1cccc(c1OCCC)Cc1cccc(c1O)C2", "False"],
  ["C=C(CC)C(=O)c1ccc(OCC(=O)O)c(Cl)c1Cl", "False"],
  ["CCCOc1c2cccc1Cc1cc(C(=O)P(=O)(O)O)cc(c1O)Cc1cccc(c1OCCC)Cc1cc(C(=O)P(=O)(O)O)cc(c1O)C2", "True"],
  ["CCCOc1c2cccc1Cc1cc(C(=O)P(=O)(OCC)OCC)cc(c1O)Cc1cccc(c1OCCC)Cc1cc(C(=O)P(=O)(OCC)OCC)cc(c1O)C2", "False"]
]}
